- tgt: PI3K-α (Homo sapiens)
- Sequence (P42336 whole entry, species assumed): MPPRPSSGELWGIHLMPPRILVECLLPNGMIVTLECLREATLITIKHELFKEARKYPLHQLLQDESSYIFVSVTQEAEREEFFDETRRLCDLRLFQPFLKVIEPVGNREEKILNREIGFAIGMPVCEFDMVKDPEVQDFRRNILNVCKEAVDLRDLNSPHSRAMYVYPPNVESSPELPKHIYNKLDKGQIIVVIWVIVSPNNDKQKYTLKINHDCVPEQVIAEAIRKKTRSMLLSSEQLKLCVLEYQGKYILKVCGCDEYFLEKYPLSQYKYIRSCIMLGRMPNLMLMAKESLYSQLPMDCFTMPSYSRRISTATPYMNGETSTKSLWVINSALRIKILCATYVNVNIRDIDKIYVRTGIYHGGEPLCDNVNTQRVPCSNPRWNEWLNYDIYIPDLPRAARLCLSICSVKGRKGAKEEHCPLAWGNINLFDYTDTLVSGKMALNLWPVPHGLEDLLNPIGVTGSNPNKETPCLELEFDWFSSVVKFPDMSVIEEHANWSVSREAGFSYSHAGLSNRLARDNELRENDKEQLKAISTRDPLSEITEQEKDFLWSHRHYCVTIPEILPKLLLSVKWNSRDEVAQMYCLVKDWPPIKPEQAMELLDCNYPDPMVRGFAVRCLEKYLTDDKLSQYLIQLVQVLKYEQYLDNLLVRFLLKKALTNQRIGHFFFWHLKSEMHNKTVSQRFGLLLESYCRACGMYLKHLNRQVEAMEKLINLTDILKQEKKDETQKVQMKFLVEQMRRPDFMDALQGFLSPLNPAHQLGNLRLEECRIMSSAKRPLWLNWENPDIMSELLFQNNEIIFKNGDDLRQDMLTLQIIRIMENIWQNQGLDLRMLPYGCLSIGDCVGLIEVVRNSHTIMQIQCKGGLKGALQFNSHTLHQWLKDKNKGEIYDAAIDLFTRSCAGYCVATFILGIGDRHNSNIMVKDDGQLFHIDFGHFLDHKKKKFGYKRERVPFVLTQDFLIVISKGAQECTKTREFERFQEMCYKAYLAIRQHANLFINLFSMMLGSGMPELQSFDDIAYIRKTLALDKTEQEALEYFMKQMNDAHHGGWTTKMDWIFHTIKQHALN
- Sequence (P27986 whole entry partner, species assumed): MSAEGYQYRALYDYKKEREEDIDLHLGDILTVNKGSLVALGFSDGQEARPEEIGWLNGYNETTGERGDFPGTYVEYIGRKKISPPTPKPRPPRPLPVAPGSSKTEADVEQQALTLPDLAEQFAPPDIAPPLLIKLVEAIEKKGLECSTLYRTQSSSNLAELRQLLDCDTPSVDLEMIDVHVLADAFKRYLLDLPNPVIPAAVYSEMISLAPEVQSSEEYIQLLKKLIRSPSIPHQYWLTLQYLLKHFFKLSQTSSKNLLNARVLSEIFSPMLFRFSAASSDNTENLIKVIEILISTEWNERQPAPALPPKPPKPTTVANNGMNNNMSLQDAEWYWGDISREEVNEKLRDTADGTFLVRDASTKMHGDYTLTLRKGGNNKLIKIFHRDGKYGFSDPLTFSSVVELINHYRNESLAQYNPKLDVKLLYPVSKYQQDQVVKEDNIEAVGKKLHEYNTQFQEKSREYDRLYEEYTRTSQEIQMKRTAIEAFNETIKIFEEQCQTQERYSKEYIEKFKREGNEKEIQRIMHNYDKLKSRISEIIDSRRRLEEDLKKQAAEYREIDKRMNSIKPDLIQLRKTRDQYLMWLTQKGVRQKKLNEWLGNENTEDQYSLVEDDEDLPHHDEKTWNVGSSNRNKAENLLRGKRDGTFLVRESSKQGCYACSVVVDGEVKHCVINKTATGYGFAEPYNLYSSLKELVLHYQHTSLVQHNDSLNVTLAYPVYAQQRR
- assay.remarks: PI3K-alpha fluorescence polarization assay
- test.settings: read-out: IC50 PI3Kα
pIC50: −log10 of the molar value.
Rule: 1 for pIC50 not less than 7, 0 for anything less.

# bool: pIC50 of O=C(Nc1ccncc1)Nc1ccc(-c2nc(CCCN3CCCC3)nc(N3CCOCC3)n2)cc1 >= 7 1

Further cases:
# bool: pIC50 of CC(O)c1cccc(NC(=O)Nc2ccc(-c3nc(N4CCOCC4)nc(N4CCOCC4)n3)cc2)c1 (stereo not drawn) >= 7 1

# bool: pIC50 of CCCCc1nc(-c2ccc(NC(=O)Nc3ccc(C(=O)OC)cc3)cc2)nc(N2CCOCC2)n1 >= 7 0

# bool: pIC50 of C[C@H]1COCCN1c1nc(-c2ccc(NC(=O)Nc3ccncc3)cc2)nc(N2C3CCC2COC3)n1 >= 7 1

# bool: pIC50 of CCc1nc(-c2ccc(NC(=O)Nc3ccc(C(=O)O)cc3)cc2)nc(N2CCOCC2)n1 >= 7 1

# bool: pIC50 of CN1CCN(CCCc2nc(-c3ccc(NC(=O)Nc4ccncc4)cc3)nc(N3CCOCC3)n2)CC1 >= 7 1

# bool: pIC50 of CC(C)Nc1nc(-c2ccc(NC(=O)Nc3ccc(CO)cc3)cc2)nc(N2CC3CCC(C2)O3)n1 >= 7 0

# bool: pIC50 of Cc1ccc(NC(=O)Nc2ccc(-c3nc(N4CCOCC4)nc(N4CC5CCC(C4)O5)n3)cc2)cc1 >= 7 1

# bool: pIC50 of C[C@@H]1COCCN1c1nc(-c2ccc(NC(=O)Nc3ccc(N4CCN(C)CC4)cc3)cc2)nc(N2C[C@@H]3C[C@H]2CO3)n1 >= 7 0

----------
Here the recorded pIC50 is given for each entry.
- Tested on: human breast MDA-MB-361 tumor cell line
- assay.remarks: In vitro cell culture growth assay (MTS), MDA-MB-361
- Assay type: cell-based
- test.settings: Homo sapiens, MDA-MB-361, 72 h, MTS cell growth assay, three days after drug treatment, MDA-MB-361 cells; read-out: IC50 MDA-MB-361
Remember the convention: pIC50 equals -log10 of concentration in molar.

Input O=C(Nc1ccc(C(=O)N2CCSCC2)cc1)Nc1ccc(-c2nc(N3CCOCC3)nc(N3C4CCC3COC4)n2)cc1 [Example 762] . Output pIC50: 8.10

Input C[C@H]1COCCN1c1nc(-c2ccc(NC(=O)Nc3ccc(C(=O)N4CCCC4)cc3)cc2)nc(N2CCOC[C@@H]2C)n1 [Example 571] . Output pIC50: 7.05

Input CCc1nc(-c2ccc(NC(=O)Nc3ccc(C(=O)N4CCN(C)CC4)cc3)cc2)nc(N2CCOCC2)n1 [Example 236] . Output pIC50: 7.65

Input CCN1CCN(C(=O)c2ccc(NC(=O)Nc3ccc(-c4nc(N5CCOCC5)nc(N5CCN(C(=O)N(C)C)CC5)n4)cc3)cc2)CC1 [Example 649] . Output pIC50: 8.05

Input CC(C)N1CCN(C(=O)c2ccc(NC(=O)Nc3ccc(-c4nc(N5CCOCC5)nc(N5CCOCC5)n4)cc3)cc2)CC1 [Example 515] . Output pIC50: 8.52

Input Nc1ccc(NC(=O)Nc2ccc(-c3nc(N4CCOCC4)nc(N4CCOCC4)n3)cc2)cc1 [Example 351] . Output pIC50: 7.30

Input Cc1ccc(-c2nc(-c3ccc(NC(=O)Nc4ccc(C(=O)O)cc4)cc3)nc(N3CCOCC3)n2)cc1 [Example 342] . Output pIC50: 5.90

Input CC(C)N1CCN(C(=O)c2ccc(NC(=O)Nc3ccc(-c4nc(N5CCOCC5)nc(N5C6CCC5COC6)n4)cc3)cc2)CC1 [Example 754] . Output pIC50: 7.50

Input CN1CCN(C(=O)c2ccc(NC(=O)Nc3ccc(-c4nc(N5CCOCC5)nc(N5C6CCCC5COC6)n4)cc3)cc2)CC1 [Example 792] . Output pIC50: 8.70

----------
- tgt: PI3K-γ (Homo sapiens)
- Sequence (P48736 whole entry, species assumed): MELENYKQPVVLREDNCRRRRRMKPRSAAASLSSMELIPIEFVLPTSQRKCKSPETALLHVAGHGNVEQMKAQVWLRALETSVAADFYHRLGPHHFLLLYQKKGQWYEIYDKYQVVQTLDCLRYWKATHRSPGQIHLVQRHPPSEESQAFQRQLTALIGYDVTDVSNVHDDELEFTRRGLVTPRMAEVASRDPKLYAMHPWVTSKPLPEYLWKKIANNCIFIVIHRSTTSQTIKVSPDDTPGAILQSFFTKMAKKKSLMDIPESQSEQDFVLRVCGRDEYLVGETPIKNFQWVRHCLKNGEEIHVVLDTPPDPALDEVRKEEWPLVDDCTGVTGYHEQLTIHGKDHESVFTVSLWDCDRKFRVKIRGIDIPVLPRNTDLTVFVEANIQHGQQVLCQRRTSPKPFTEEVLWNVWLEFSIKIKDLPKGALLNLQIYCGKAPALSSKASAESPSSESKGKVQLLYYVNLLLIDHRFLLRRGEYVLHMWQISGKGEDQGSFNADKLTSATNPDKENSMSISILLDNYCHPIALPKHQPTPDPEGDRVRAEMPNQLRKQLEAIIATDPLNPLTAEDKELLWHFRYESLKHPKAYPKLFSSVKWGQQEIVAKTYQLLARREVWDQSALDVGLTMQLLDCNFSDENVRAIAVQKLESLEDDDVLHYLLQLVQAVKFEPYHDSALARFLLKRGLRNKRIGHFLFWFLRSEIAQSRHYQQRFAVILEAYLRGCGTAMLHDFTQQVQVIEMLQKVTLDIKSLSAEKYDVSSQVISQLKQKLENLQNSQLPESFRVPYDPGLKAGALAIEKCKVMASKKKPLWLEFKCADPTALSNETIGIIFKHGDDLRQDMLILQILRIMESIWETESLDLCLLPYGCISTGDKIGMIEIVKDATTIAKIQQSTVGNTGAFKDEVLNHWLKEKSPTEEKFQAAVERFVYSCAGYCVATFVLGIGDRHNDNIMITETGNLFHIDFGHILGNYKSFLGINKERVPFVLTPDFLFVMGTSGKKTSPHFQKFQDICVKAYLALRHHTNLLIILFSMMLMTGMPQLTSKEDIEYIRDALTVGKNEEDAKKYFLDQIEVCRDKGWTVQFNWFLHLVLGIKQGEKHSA
- assay.remarks: PI3K-gamma fluorescence polarization assay
- test.settings: read-out: IC50 PI3Kγ
endpoint.name: pIC50
Remember the convention: pIC50 equals -log10 of concentration in molar.

Record for CN1CCN(C(=O)c2ccc(NC(=O)Nc3ccc(-c4nc(C5=CCOCC5)nc(N5CCOCC5)n4)cc3)cc2)CC1 under target or system PI3K-γ (Homo sapiens): pIC50 reported as 8.05

Record for CN(C)c1ccc(NC(=O)Nc2ccc(-c3nc(OC4CCOCC4)nc(N4CCOCC4)n3)cc2)cc1 under target or system PI3K-γ (Homo sapiens): pIC50 reported as 7.52

Record for O=C(Nc1ccccc1)Nc1ccc(-c2nc(N3CCOCC3)nc(N3CC4CCC(C3)O4)n2)cc1 under target or system PI3K-γ (Homo sapiens): pIC50 reported as 7.29

Further cases:
Record for CN1CCN(CC(=O)Nc2ccc(NC(=O)Nc3ccc(-c4nc(N5CC6CCC(C5)O6)nc(N5CC6CCC(C5)O6)n4)cc3)cc2)CC1 under target or system PI3K-γ (Homo sapiens): pIC50 reported as 6.18

Record for O=C(Nc1ccc(C(=O)O)cc1)Nc1ccc(-c2nc(N3CCCOCC3)nc(N3CCOCC3)n2)cc1 under target or system PI3K-γ (Homo sapiens): pIC50 reported as 6.43

Record for O=C(Nc1ccc(C(=O)N2CCOCC2)cc1)Nc1ccc(-c2nc(N3CCOCC3)nc(N3C4CCC3COC4)n2)cc1 under target or system PI3K-γ (Homo sapiens): pIC50 reported as 7.62

Record for C[C@@H]1COCCN1c1nc(-c2ccc(NC(=O)Nc3ccc(OCCN4CCCC4)cc3)cc2)nc(N2CCOC[C@H]2C)n1 under target or system PI3K-γ (Homo sapiens): pIC50 reported as 5.62

Record for CC(C)N1CCN(C(=O)c2ccc(NC(=O)Nc3ccc(-c4nc(N5CCOCC5)nc(N5C6CCCC5COC6)n4)cc3)cc2)CC1 under target or system PI3K-γ (Homo sapiens): pIC50 reported as 7.19

Record for C[C@@H]1COCCN1c1nc(-c2ccc(NC(=O)Nc3ccc(OCCN(C)C)cc3)cc2)nc(N2CCOC[C@H]2C)n1 under target or system PI3K-γ (Homo sapiens): pIC50 reported as 5.44

Record for C[C@H]1COCCN1c1nc(-c2ccc(NC(=O)Nc3ccc(C(=O)O)cc3)cc2)nc(N2CCOC[C@@H]2C)n1 under target or system PI3K-γ (Homo sapiens): pIC50 reported as 5.34

Record for CC(C)Nc1nc(-c2ccc(NC(=O)Nc3ccc(CN)cc3)cc2)nc(N2C3CCC2COC3)n1 under target or system PI3K-γ (Homo sapiens): pIC50 reported as 5.37

Record for CN(C)C(=O)N1CCN(c2nc(-c3ccc(NC(=O)Nc4ccc(C(=O)Nc5ccnnc5)cc4)cc3)nc(N3CCOCC3)n2)CC1 under target or system PI3K-γ (Homo sapiens): pIC50 reported as 7.23

Record for O=C(Nc1ccncc1)Nc1ccc(-c2nc(C3CCOCC3)nc(N3CCOCC3)n2)cc1 under target or system PI3K-γ (Homo sapiens): pIC50 reported as 7.48

Record for CCNC1CCN(c2nc(-c3ccc(NC(=O)Nc4ccncc4)cc3)nc(N3CC4CCC(C3)O4)n2)CC1 under target or system PI3K-γ (Homo sapiens): pIC50 reported as 5.12

----------
- tgt: Human mTOR (FLAG-TOR) (Homo sapiens, UniProt P42345)
- Sequence (P42345 1360-2549 limits assumed): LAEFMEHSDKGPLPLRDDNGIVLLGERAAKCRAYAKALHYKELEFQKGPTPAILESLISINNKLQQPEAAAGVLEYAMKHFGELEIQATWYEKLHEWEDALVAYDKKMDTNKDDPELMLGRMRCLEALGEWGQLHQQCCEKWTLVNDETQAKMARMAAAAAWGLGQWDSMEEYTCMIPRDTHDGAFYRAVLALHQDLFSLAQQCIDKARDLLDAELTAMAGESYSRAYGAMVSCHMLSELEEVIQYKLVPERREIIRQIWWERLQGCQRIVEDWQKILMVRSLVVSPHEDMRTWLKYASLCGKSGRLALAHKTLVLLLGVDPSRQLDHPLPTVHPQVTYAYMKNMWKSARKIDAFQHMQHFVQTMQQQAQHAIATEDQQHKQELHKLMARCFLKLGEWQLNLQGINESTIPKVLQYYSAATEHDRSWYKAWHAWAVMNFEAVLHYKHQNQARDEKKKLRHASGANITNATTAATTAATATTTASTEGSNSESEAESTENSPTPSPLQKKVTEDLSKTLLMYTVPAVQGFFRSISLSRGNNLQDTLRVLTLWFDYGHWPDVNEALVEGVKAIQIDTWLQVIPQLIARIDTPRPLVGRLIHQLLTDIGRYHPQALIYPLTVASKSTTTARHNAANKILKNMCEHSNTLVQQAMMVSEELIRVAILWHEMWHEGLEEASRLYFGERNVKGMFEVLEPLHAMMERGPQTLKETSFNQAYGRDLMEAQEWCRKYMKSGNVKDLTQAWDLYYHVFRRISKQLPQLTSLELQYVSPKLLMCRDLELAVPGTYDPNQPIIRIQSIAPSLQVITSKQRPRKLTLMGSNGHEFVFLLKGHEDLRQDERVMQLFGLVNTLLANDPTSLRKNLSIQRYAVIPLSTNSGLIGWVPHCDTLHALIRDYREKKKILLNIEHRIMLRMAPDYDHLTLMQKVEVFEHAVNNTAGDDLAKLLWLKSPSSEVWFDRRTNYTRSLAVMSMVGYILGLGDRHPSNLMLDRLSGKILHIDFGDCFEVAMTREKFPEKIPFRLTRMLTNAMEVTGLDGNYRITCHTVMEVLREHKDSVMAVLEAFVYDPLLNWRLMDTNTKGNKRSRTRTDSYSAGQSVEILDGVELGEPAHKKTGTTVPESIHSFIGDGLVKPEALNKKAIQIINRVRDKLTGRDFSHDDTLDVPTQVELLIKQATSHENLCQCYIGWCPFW
- assay.remarks: mTOR kinase assay (DELFIA format, purified enzyme)
- Type: biochemical
- test.settings: read-out: IC50 mTOR
Categories are assigned from the measured IC50 using these intervals: bottom end = under 2 nM, midrange = from 2 nM up to 10 nM, top end = 10 nM and over

Take a look at these entries with their results.
Assign a category based on measured IC50 for CN(C)CC(=O)N1CCN(c2nc(-c3ccc(NC(=O)Nc4ccncc4)cc3)nc(N3CC4CCC(C3)O4)n2)CC1 and give only the class name. top end

Assign a category based on measured IC50 for CN(C)CCN(C)C(=O)c1ccc(NC(=O)Nc2ccc(-c3nc(N4CCOCC4)nc(N4CCN(C(=O)N(C)C)CC4)n3)cc2)cc1 and give only the class name. midrange

Assign a category based on measured IC50 for C[C@@H]1COCCN1c1nc(-c2ccc(NC(=O)Nc3cccnc3)cc2)nc(N2CCOC[C@H]2C)n1 and give only the class name. bottom end

Assign a category based on measured IC50 for O=C(Nc1ccc(C(=O)N2CCC(N3CCCCC3)CC2)cc1)Nc1ccc(-c2nc(N3CCOCC3)nc(N3C4CCC3COC4)n2)cc1 and give only the class name. bottom end

Assign a category based on measured IC50 for O=C(Nc1ccc(F)cc1)Nc1ccc(-c2nc(N3CCOCC3)nc(N3CC4CCC(C3)O4)n2)cc1 and give only the class name. midrange

Further cases:
Assign a category based on measured IC50 for CN(C)CCN(C)C(=O)c1ccc(NC(=O)Nc2ccc(-c3nc(C4=CCOCC4)nc(N4CCOCC4)n3)cc2)cc1 and give only the class name. bottom end

Assign a category based on measured IC50 for CC(C)N1CCN(C(=O)c2ccc(NC(=O)Nc3ccc(-c4nc(N5CCOCC5)nc(N5C6CCCC5COC6)n4)cc3)cc2)CC1 and give only the class name. bottom end

Assign a category based on measured IC50 for CN1CCN(C(=O)c2ccc(NC(=O)Nc3ccc(-c4nc(N5CCOCC5)nc(N5C6CCC5COC6)n4)cc3)cc2)CC1 and give only the class name. bottom end

Assign a category based on measured IC50 for CC1CN(C(=O)c2ccc(NC(=O)Nc3ccc(-c4nc(N5CCOCC5)nc(N5C6CCC5COC6)n4)cc3)cc2)CC(C)N1 (stereo not shown) and give only the class name. bottom end

Assign a category based on measured IC50 for COCC(COC)Oc1nc(-c2ccc(NC(=O)Nc3ccc(N4CCN(C)CC4)cc3)cc2)nc(N2CC3CCC(C2)O3)n1 and give only the class name. midrange
